Protocol Summary: Therapeutic index (TI) value as ratio of lethal dose (LD50) to the inhibitory concentration (IC50)
Format: cell-based
Measurement Setup: human, KB cells; read-out: TI
Reported Property: selectivity ratio

Below, 4 compounds whose answers are already recorded.
NCCCCCC(O)(P(=O)(O)O)P(=O)(O)O : 11.4
Nc1ccc(CC(O)(P(=O)(O)O)P(=O)(O)O)cc1 : 2.71
O=P(O)(O)C(N(C1CCCCC1)C1CCCCC1)P(=O)(O)O : > 20.1
CCCCCCCC(O)(P(=O)(O)O)P(=O)(O)O : 21.9

Okay, now this compound:
Reported selectivity ratio for "CCCCCCC(O)(P(=O)(O)O)P(=O)(O)O" was 4.23
